Numbers sourced from patent US6355799B1.

# Test system: velvetleaf (Abutilon theophrasti, ABUTH)
# protocol_details: Post-emerge test, greenhouse herbicide activity screening
# Format: in vivo
# measurement_setup: 63 g ai/ha; phytotoxicity rating 0-100 (0 no damage, 100 complete death), 14 days after application
endpoint_name: Post-emerge Herbicidal Activity ABUTH
One number for each entry.

Solved cases below.
• CCOc1c(Cl)cc(F)c(-n2c(=O)cc(C(F)(F)F)n(C)c2=O)c1N = 70
• CCOC(=O)CC(=O)Nc1c(OC(=O)CC(=O)OCC)c(Cl)cc(F)c1-n1c(=O)cc(C(F)(F)F)n(C)c1=O = 100
• COc1c(Cl)cc(F)c(-n2c(=O)cc(C(F)(F)F)n(C)c2=O)c1NC(=O)c1ccc(C(C)(C)C)cc1 = 30

Batch request: Post-emerge Herbicidal Activity ABUTH for each of the following compounds.
1. CC(C)Oc1c(Cl)cc(F)c(-n2c(=O)cc(C(F)(F)F)n(C)c2=O)c1N
2. COC(=O)C=CCOc1c(Cl)cc(F)c(-n2c(=O)cc(C(F)(F)F)n(C)c2=O)c1N

**A:**
70
100

**Q:** Provide Post-emerge Herbicidal Activity ABUTH value for the following compound: `COc1c(Cl)cc(F)c(-n2c(=O)cc(C(F)(F)F)n(C)c2=O)c1N=CN(C)C`
**A:** 20

###

# Test system: sicklepod (Cassia obtusifolia, CASOB)
# protocol_details: Pre-emerge test, greenhouse herbicide activity screening
# Format: in vivo
# measurement_setup: 250 g ai/ha; pre-emerge; rated 14 days after application; 0 = no damage, 100 = complete death
endpoint_name: Pre-emerge Herbicidal Activity CASOB (phytotoxicity rating, scale 0-100)
Give bare numbers.

* CCc1ccc(C(=O)Nc2c(OCC#N)c(Cl)cc(F)c2-n2c(=O)cc(C(F)(F)F)n(C)c2=O)cc1 [2-28] | 100
* CCCc1ccc(C(=O)N(C(=O)c2ccc(CCC)cc2)c2c(OC)c(Cl)cc(F)c2-n2c(=O)cc(C(F)(F)F)n(C)c2=O)cc1 [2-29] | 100
* CCOC(=O)C(C)Nc1c(OC)c(Cl)cc(F)c1-n1c(=O)cc(C(F)(F)F)n(C)c1=O (stereo not drawn) [Compound 1-55] | 0
* COc1c(Cl)cc(F)c(-n2c(=O)cc(C(F)(F)F)n(C)c2=O)c1N [Compound 1-4] | 100
* COc1c(Cl)cc(F)c(-n2c(=O)c(N)c(C(F)(F)F)n(C)c2=O)c1N [Compound 1-10] | 50
* C=CC(=O)N(C(=O)C=C)c1c(OC)c(Cl)cc(F)c1-n1c(=O)cc(C(F)(F)F)n(C)c1=O [2-4] | 0

Batch request: Pre-emerge Herbicidal Activity CASOB (phytotoxicity rating, scale 0-100) for each of the following compounds.
1. COc1c(Cl)cc(F)c(-n2c(=O)cc(C(F)(F)F)n(C)c2=O)c1N(C(=O)C1CC1)C(=O)C1CC1 [2-18]
2. C=Cc1ccc(C(=O)Nc2c(OC)c(Cl)cc(F)c2-n2c(=O)cc(C(F)(F)F)n(C)c2=O)cc1 [2-31]
3. CCOC(=O)C(C)Nc1cc(Cl)cc(F)c1-n1c(=O)cc(C(F)(F)F)n(C)c1=O (stereo not drawn) [Compound 1-54]

**A:**
1: 40; 2: 100; 3: 80

###

# Tested on: green foxtail (Setaria viridis, SETVI)
# protocol_details: Pre-emerge test, greenhouse herbicide activity screening
# Format: in vivo
# measurement_setup: pre-emerge, rate 250 g ai/ha, phytotoxicity rating 0-100 at 14 days after application
endpoint_name: Pre-emerge Herbicidal Activity SETVI
Give bare numbers.

Solved cases below.
• CC(C)Oc1c(Cl)cc(F)c(N2C(=O)C3=C(CCCC3)C2=O)c1NC(=O)c1ccc(F)cc1F [8-18] = 100
• C#CCOc1c(Cl)cc(F)c(N2C(=O)C3=C(CCCC3)C2=O)c1N [Compound 8-3] = 98

**Q:** Provide Pre-emerge Herbicidal Activity SETVI value for the following compound: Cc1cc(C)c(COC(=O)Nc2c(C)c(Cl)cc(F)c2-n2c(=O)cc(C(F)(F)F)n(C)c2=O)c(C)c1 [4-69]
**A:** 100

###

# Tested on: upland rice (Oryza sp., var. Tebonnet, RICE)
# protocol_details: Pre-emerge test, crop safety
# Format: in vivo
# measurement_setup: 250 g ai/ha; crop damage rating 0-100, 14 days after application
# Procedure: A standard greenhouse herbicide activity screening system was used to evaluate the herbicidal efficacy and crop safety of these test compounds. […] At 14 days after application of the test materials, phytotoxicity ratings were recorded. […]
Assign class by Pre-emerge Herbicidal Activity RICE: not lower than 40 means MET; lower than 40 means NOT MET.

* Nn1c(C(F)(F)F)cc(=O)n(-c2c(F)cc(Cl)c(O)c2NC(=O)c2ccc3ccccc3c2)c1=O [Compound 2-192] | NOT MET
* COc1c(Cl)cc(F)c(-n2c(=O)cc(C(F)(F)F)n(C)c2=O)c1NC(=O)OCc1cc(C)cc(C)c1 [4-37] | NOT MET
* Cn1c(C(F)(F)F)cc(=O)n(-c2ccc(Cl)cc2NC(=O)OCc2ccccc2F)c1=O [4-49] | NOT MET
* COc1c(Cl)cc(F)c(-n2c(=O)cc(C(F)(F)F)n(C)c2=O)c1NC(=O)OCc1ccc(OC(F)(F)F)cc1 [4-45] | NOT MET
* Cc1ccc(-n2c(=O)cc(C(F)(F)F)n(C)c2=O)c(NC(=O)c2ccc3ccccc3c2)c1 [2-201] | NOT MET

**Q:** # bool: Pre-emerge Herbicidal Activity RICE of Cn1c(C(F)(F)F)cc(=O)n(-c2ccc(OC(F)(F)F)cc2NC(=O)c2ccc3ccccc3c2)c1=O [2-203] >= 40
**A:** NOT MET

**Q:** # bool: Pre-emerge Herbicidal Activity RICE of COc1c(Cl)cc(F)c(-n2c(=O)cc(C(F)(F)F)n(C)c2=O)c1NC(=O)NCc1ccccc1 [Compound 3-6] >= 40
**A:** MET

**Q:** # bool: Pre-emerge Herbicidal Activity RICE of COc1c(Cl)cc(F)c(-n2c(=O)cc(C(F)(F)F)n(C)c2=O)c1NC(=O)OCc1ccc(C)c(C)c1 [4-26] >= 40
**A:** MET

###

# Tested on: johnsongrass (Sorghum halepense, SORHA)
# protocol_details: Post-emerge test, greenhouse herbicide activity screening
# Format: in vivo
# measurement_setup: post-emerge, 250 g ai/ha, 14 days after application, rating scale 0-100
# Description: A standard greenhouse herbicide activity screening system was used to evaluate the herbicidal efficacy and crop safety of these test compounds. […] At 14 days after application of the test materials, phytotoxicity ratings were recorded. […]
endpoint_name: phytotoxicity rating SORHA
Give bare numbers.

* Cc1ccc(-n2c(=O)cc(C(F)(F)F)n(C)c2=O)c(NC(=O)c2ccc3ccccc3c2)c1 [2-201] | 0
* COc1c(Cl)cc(F)c(-n2c(=O)cc(C(F)(F)F)n(C)c2=O)c1NC(=O)OCc1ccc(C)c(C)c1 [4-26] | 50

Batch request: phytotoxicity rating SORHA for each of the following compounds.
1. COc1c(Cl)cc(F)c(-n2c(=O)cc(C(F)(F)F)n(C)c2=O)c1NC(=O)CC#N [2-14]
2. Cc1ccccc1COC(=O)Nc1c(C)c(Cl)cc(F)c1-n1c(=O)cc(C(F)(F)F)n(C)c1=O [4-56]
3. COc1c(Cl)cc(F)c(-n2c(=O)cc(C(F)(F)F)n(C)c2=O)c1NC(=O)COc1ccccc1 [2-119]
4. COc1c(Cl)cc(F)c(-n2c(=O)cc(C(F)(F)F)n(C)c2=O)c1NC(=O)c1ccc(C(F)(F)F)cc1 [2-33]
5. COc1c(Cl)cc(F)c(-n2c(=O)cc(C(F)(F)F)n(C)c2=O)c1N(C(=O)c1ccc([N+](=O)[O-])cc1)C(=O)c1ccc([N+](=O)[O-])cc1 [2-69]
6. COc1c(Cl)cc(F)c(-n2c(=O)cc(C(F)(F)F)n(N)c2=O)c1NC(=O)c1ccc(F)cc1F [2-44]

**A:**
[20, 90, 90, 20, 0, 30]

Batch request: phytotoxicity rating SORHA for each of the following compounds.
1. COc1c(Cl)cc(F)c(-n2c(=O)cc(C(F)(F)F)n(C)c2=O)c1NC(=O)OCc1ccccc1C(F)(F)F [4-33]
2. COc1c(Cl)cc(F)c(-n2c(=O)cc(C(F)(F)F)n(C)c2=O)c1NC(=O)OCc1ccc(F)cc1 [4-7]
3. COc1c(Cl)cc(F)c(-n2c(=O)cc(C(F)(F)F)n(C)c2=O)c1NC(=O)C(=O)c1ccccc1 [2-121]
4. Cc1c(Cl)cc(F)c(-n2c(=O)cc(C(F)(F)F)n(C)c2=O)c1NC(=O)OCc1ccccc1Cl [4-54]
5. COc1c(Cl)cc(F)c(-n2c(=O)cc(C(F)(F)F)n(C)c2=O)c1NC(=O)c1ccc(C#N)cc1 [2-67]
6. COc1c(Cl)cc(F)c(-n2c(=O)cc(C(F)(F)F)n(C)c2=O)c1NC(=O)OCc1ccc(F)c(F)c1 [4-30]
7. CC(C)Oc1c(Cl)cc(F)c(-n2c(=O)cc(C(F)(F)F)n(C)c2=O)c1NC(=O)c1ccc2ccccc2c1 [2-197]
8. COc1c(Cl)cc(F)c(-n2c(=O)cc(C(F)(F)F)n(C)c2=O)c1NC(=O)OCc1c(F)cccc1F [4-29]

**A:**
30
90
10
70
80
100
50
100

Batch request: phytotoxicity rating SORHA for each of the following compounds.
1. CNC(=O)N(C(=O)NC)c1c(OC)c(Cl)cc(F)c1-n1c(=O)cc(C(F)(F)F)n(C)c1=O [Compound 3-1]
2. COc1c(Cl)cc(F)c(-n2c(=O)cc(C(F)(F)F)n(C)c2=O)c1NC(=O)c1cccnc1 [2-98]

**A:**
1: 0; 2: 90
